Where these numbers come from: patent EP0683169A1

- Test system: Klebsiella pneumoniae 8085
- assay: MIC (MHK) by agar serial dilution on Iso-Sensitest agar
- Type: cell-based
- experimental setup: strain 8085, ca. 10⁴ colony-forming particles per spot, 37°C, ca. 20 h, read-out: MHK-Werte
reported property: MIC

Give MIC for the following compound: CN1COc2c(N3CCC(O)C3)c(F)c(N)c3c(=O)c(C(=O)O)cn1c23 (stereo not shown)
0.25 µg/mL

Read off the recorded MIC for CN1C[C@@H]2C[C@H]1CN2c1c(F)c(N)c2c(=O)c(C(=O)O)cn3c2c1OCN3C
0.12 µg/mL

Check the records and state MIC for CC1CN(c2c(F)c(N)c3c(=O)c(C(=O)O)cn4c3c2OCN4C)CCN1 (stereo not shown)
0.12 µg/mL

Annotate the compound CN1CCN(c2c(F)c(N)c3c(=O)c(C(=O)O)cn4c3c2OCN4C)CC1 with its measured MIC.
0.06 µg/mL

====

- Test system: E. coli ATCC 25922
- assay: MIC (MHK) by agar serial dilution on Iso-Sensitest agar
- Format: cell-based
- experimental setup: Escherichia coli, ATCC25922, strain ATCC 25922, ca. 10⁴ colony-forming particles per spot, 37°C, ca. 20 h, read-out: MHK-Werte
Exercise: for every item that follows, state its recorded MIC.
Provide the reading as a plain figure in µg/mL.

Retrieve MIC measured for CC1CN(c2c(F)c(N)c3c(=O)c(C(=O)O)cn4c3c2OCN4C)CCN1 (stereo not shown) and print it.
0.06

Please give measured MIC of the following entry: CN1CCN(c2c(F)c(N)c3c(=O)c(C(=O)O)cn4c3c2OCN4C)CC1
0.015

Return the recorded MIC value; entry: CN1COc2c(N3CCC(O)C3)c(F)c(N)c3c(=O)c(C(=O)O)cn1c23 (stereo not shown)
0.03

Give me measured MIC, please, for this compound: CN1C[C@@H]2C[C@H]1CN2c1c(F)c(N)c2c(=O)c(C(=O)O)cn3c2c1OCN3C
0.06

====

- Tested on: E. coli Neumann
- assay: MIC (MHK) by agar serial dilution on Iso-Sensitest agar
- Format: cell-based
- experimental setup: Escherichia coli, strain Neumann, ca. 10⁴ colony-forming particles per spot, 37°C, ca. 20 h, read-out: MHK-Werte
- Description: Die minimalen Hemmkonzentrationen (MHK) der erfindungsgemäßen Verbindungen wurden per Reihenverdünnungsverfahren auf Iso-Sensitest Agar (Oxoid) bestimmt. Für jede Prüfsubstanz wurde eine Reihe von Agarplatten hergestellt, die bei jeweils doppelter Verdünnung abfallende Konzentrationen des Wirkstoffs enthielten. Die Agarplatten wurden mit einem Multipoint-Inokulator (Denley) beimpft. […]
reported property: MIC (µg/mL)
Entry rule: numbers only, all in µg/mL.

Specify MIC for CC1CN(c2c(F)c(N)c3c(=O)c(C(=O)O)cn4c3c2OCN4C)CCN1 (stereo not shown) and stop.
0.06

Give the measured MIC for CN1COc2c(N3CCC(O)C3)c(F)c(N)c3c(=O)c(C(=O)O)cn1c23 (stereo not shown)
0.015

Look up and state reported MIC for CN1C[C@@H]2C[C@H]1CN2c1c(F)c(N)c2c(=O)c(C(=O)O)cn3c2c1OCN3C
0.06

Give recorded MIC. CN1CCN(c2c(F)c(N)c3c(=O)c(C(=O)O)cn4c3c2OCN4C)CC1
0.015
